# measured-target: T1, CD19 antigen on Daudi lymphoma cells (human, UniProt P15391 20-556)
# T1 construct: whole, on cells; also called Daudi cells
# T1 sequence (looked up): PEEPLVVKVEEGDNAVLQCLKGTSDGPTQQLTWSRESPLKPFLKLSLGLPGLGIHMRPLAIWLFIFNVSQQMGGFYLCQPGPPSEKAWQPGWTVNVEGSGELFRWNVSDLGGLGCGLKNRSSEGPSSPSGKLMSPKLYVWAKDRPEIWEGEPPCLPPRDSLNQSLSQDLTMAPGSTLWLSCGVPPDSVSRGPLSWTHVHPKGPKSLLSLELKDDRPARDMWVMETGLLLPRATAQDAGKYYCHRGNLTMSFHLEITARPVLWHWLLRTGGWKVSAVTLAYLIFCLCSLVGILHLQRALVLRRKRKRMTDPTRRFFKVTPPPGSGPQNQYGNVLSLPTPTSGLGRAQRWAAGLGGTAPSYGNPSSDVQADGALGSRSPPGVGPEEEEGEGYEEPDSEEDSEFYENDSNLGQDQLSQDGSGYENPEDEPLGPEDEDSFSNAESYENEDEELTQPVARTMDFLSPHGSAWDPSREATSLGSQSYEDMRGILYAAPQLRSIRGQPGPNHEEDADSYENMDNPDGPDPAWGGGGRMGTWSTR
# experiment-notes: FACS competition on Daudi cells; unlabeled antibody 200 ng/ml (2x) vs competitor biotin-B4 VH0/VK0 100 ng/ml
parameter-measured: % inhibition of labeled B4 binding (%)
Give the number; % is assumed, so skip it.

Please review the entries below; each comes with its answer.
B4 VHv4/VKv3 antibody (antibody, V domains shown) VH: QVQLEQPGAEVVKPGASVKVSCKTSGYTFTSNWMHWVKQTPGKGLEWIGEIDPSDSYTNYNQKFDGKAKLTVDKSSSTAYMEVSDLTAEDSATYYCARGSNPYYYAMDYWGQGTSVTVSS VL: QIVLTQSPATLSASPGEKATMTCSASSGANYMHWYQQKPGTSPKRWIYDTSKLASGVPARFSGSGSGTSYSLTIESMEAEDAATYYCHQRGSYTFGGGTKLEIK    32
B4 VH0/VK0 antibody (antibody, V domains shown, Expressed from pdHL12 as intact heavy and light chains; also called parental B4 antibody) VH: QVQLQQPGAEVVKPGASVRLSCKTSGYTFTSNWMHWVKQRPGQGLEWIGEIDPSDSYTNYNQKFKGKAKLTVDKSSSTAYMEVSSLTSEDSAVYYCARGSNPYYYAMDYWGQGTSVTVSS VL: QIVLTQSPAIMSASPGEKVTMTCSASSGVNYMHWYQQKPGTSPKRWIYDTSKLASGVPARFSGSGSGTSYSLTISSMEAEDAATYYCHQRGSYTFGGGTKLEIK    44
B4 VHv4/VKv4 antibody (antibody, V domains shown) VH: QVQLEQPGAEVVKPGASVKVSCKTSGYTFTSNWMHWVKQTPGKGLEWIGEIDPSDSYTNYNQKFDGKAKLTVDKSSSTAYMEVSDLTAEDSATYYCARGSNPYYYAMDYWGQGTSVTVSS VL: QIVLTQSPATLSASPGEKATMTCSASSGVNYMHWYQQKPGTSPKRWIYDTDKTASGVPARFSGSGSGTSYSLTISSMEAEDAATYYCHQRGSYTFGGGTKLEIK    32

Pending binder:
Form field % inhibition of labeled B4 binding, entry B4 VHv1/VKv1 antibody (antibody, V domains shown) VH: QVQLQQPGAEVVKPGASVRLSCETSGYTFTSNWMHWVKQRPDQGLEWIGEIDPSDSYTNYNQKFKGKAELTVDKSSSTAYMEVSDLTSEDSAVYYCARGSNPYYYAMDYWGQGTSVTVSS VL: QIALTQEPAIMSASPGEKVTMTCSASSGVNYMHWYQQKPGTSPKRWIYDTSKLDSGVPARFSGSGSGTSYSLTISSMEAEDAATYYCHQRGSYTFGGGTKLEIK : 28
